# Tested on: 299254-011-R-J1-PDC complex spheroid viability;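 also: spheroids exposed to drugs for one week before measurement; percent viability relative to DMSO vehicle control taken as 100%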
# TEST_METHOD_NOTES: Anticancer human tumor 299254-011-R-J1-PDC patient-derived melanoma cell line growth inhibition [POLQ]
# CONDITIONS: second compound 1 µM; first compound 0.1 µM; stronger effect = lower value
Entries annotated with measured viability, T/C
Please state the figure in %; there is no need to write the unit.

Example results:
COc1cccc2c1C(=O)c1c(O)c3c(c(O)c1C2=O)CC(O)(C(=O)CO)CC3OC1CC(N)C(O)C(C)O1 (centres undefined) + Cc1cccc(N(C)C(=O)C2C(O)CCN2c2nc(C)cc(C(F)(F)F)c2C#N)c1	89.8
CCc1c2c(nc3ccc(O)cc13)-c1cc3c(c(=O)n1C2)COC(=O)[C@]3(O)CC + Nc1ccc(C#CCN(C(=O)Cc2ncc(C(F)(F)F)cc2C(F)(F)F)c2ccc(F)cc2)nn1	79.5

Notebook: CC1COCCN1c1cc(-c2ccnn2C)c2ccnc(-c3ccn[nH]3)c2n1 (centres undefined) + Nc1ccc(C#CCN(C(=O)Cc2ncc(C(F)(F)F)cc2C(F)(F)F)c2ccc(F)cc2)nn1 , viability, T/C read as 68.5

COc1ccc([C@@H](O)c2cc(-c3ncnc4cc(N5CCOCC5)ccc34)c(F)cc2Cl)nn1 + Cc1cccc(N(C)C(=O)C2C(O)CCN2c2nc(C)cc(C(F)(F)F)c2C#N)c1 yielded viability, T/C of 97.6
